Data origin: PubChem BioAssay (EPA / NIEHS)

# System: zebrafish Estrogen Receptor (ER2a), gene 317734
# protocol_description: ATG_zfER2a_XSP2: Attagene TRANS-FACTORIAL Multi-Species (XSP2) HepG2 Assay for zebrafish Estrogen Receptor (ER2a) (AID 2283818);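 further: hits raise reporter mRNA so AC50 reflects activation of zebrafish ER2a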
Records with an inconclusive call do not appear. Active and inactive are the calls of the source. How the source made its calls: active means hit-call score of the fitted dose curve at least 0.9, where 1 is the maximum; inconclusive means response in the unintended direction; inactive means score below 0.9.
Outcome codes: active, inactive

1. C[C@]12CC[C@@H]3c4ccc(O)cc4CC[C@H]3[C@@H]1CCC2=O ... active
2. Cc1c2ccccc2c(C)c2c1ccc1ccccc12 ... inactive
3. CC1(C)NC(=O)N(c2ccc([N+](=O)[O-])c(C(F)(F)F)c2)C1=O ... inactive
4. CC/C(=C(/CC)c1ccc(O)cc1)c1ccc(O)cc1 ... active
